Test system: Plasmodium falciparum Sir2 (PF13_0152, Sir2A)
testName: pfSir2 binders on small-molecule microarrays, primary screen, biochemical, small-molecule microarray, 635 nm fluorescence (AID 1098);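 further: score merges spot fluorescence intensity with its signal-to-noise ratio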
studyConditions: small-molecule microarray binding, fluorescence 635 nm; higher = more signal
measuredEndpoint: composite z-score
Form field (numeric): enter value without unit.

Bench note: what composite z-score did Cc1ccc(S[C@]2(C(=O)O)CC(=O)N(C(C)C)[C@@H]2c2ccc(CO)cc2I)cc1 show?
1.33

Bench note: what composite z-score did CC1(C)C2C=C(C(O)C3C=CC4C(=O)NC(=O)C4N3Nc3ccc(Cl)cc3Cl)C[C@@H]1C2 (stereo partly specified) show?
0.213

Bench note: what composite z-score did C=C(CC1([C@@H](NP(=O)(c2ccccc2)c2ccccc2)[C@H]2C[C@@H]2CCCC)CC1)c1ccccc1 show?
0.339

Bench note: what composite z-score did COCCOC(=O)N1C(=O)[C@@]2(c3cc(C#CCC(C(=O)OC)C(=O)OC)ccc31)[C@H](c1ccccc1OCCO)N1[C@H](c3ccccc3)[C@H](c3ccccc3)OC(=O)[C@H]1[C@@H]2C(=O)N1CCN(c2ncccn2)CC1 show?
0.875

Bench note: what composite z-score did COCCOC(=O)N1C(=O)[C@@]2(c3cc(C#CC4(O)CCCCCC4)ccc31)[C@H](c1ccc(OCCO)cc1)N1[C@H](c3ccccc3)[C@H](c3ccccc3)OC(=O)[C@H]1[C@@H]2C(=O)N1CCN(c2ncccn2)CC1 show?
1

Bench note: what composite z-score did [N-]=[N+]=NCc1ccccc1[C@@H]1OC(c2ccc(OCCCO)cc2)=N[C@]1(Cc1ccccc1)C(=O)NCC(O)CO (stereo partly specified) show?
0.62

###

testName: S. cerevisiae growth modulation with rapamycin, primary screen, strain BY4716, OD600, 96 h (AID 1091); further: test concentration not given here
studyConditions: called active from +8 up or from −8 down
Calls of active or inactive are those of the source.
Field 'call' accepts active, inactive

GET /call?item= CN(C)CCCC[C@@H]1NC(=O)[C@@H]2C[C@H](C(=O)NCCCCCCN)[C@H](c3cccc(OCCO)c3)N2C1=O returns the recorded outcome of this test.
inactive

GET /call?item= C=C[C@@H](COC(=O)OC(C)(C)C)N(Cc1ccc(OC)cc1)S(=O)(=O)c1ccc(Br)cc1 returns the recorded outcome of this test.
inactive

GET /call?item= CO[C@H]1O[C@H](CO)[C@@H](OC(=O)Nc2ccc(C(F)(F)F)cc2)[C@H](OC(=O)Nc2ccc3c(c2)OCO3)[C@@H]1OC(=O)Nc1ccc2c(c1)OCO2 returns the recorded outcome of this test.
active

GET /call?item= CO[C@H]1O[C@H](CO)[C@@H](OC(=O)Nc2ccccc2)[C@H](OC(=O)Nc2ccccc2)[C@@H]1OC(=O)Nc1ccccc1 returns the recorded outcome of this test.
inactive

GET /call?item= O=C1C[C@@](C(=O)NCCN2CCOCC2)(c2ccc([N+](=O)[O-])cc2)[C@@H](c2ccc(CO)cc2)N1CC12CC3CC(CC(C3)C1)C2 returns the recorded outcome of this test.
inactive

GET /call?item= C=CCN1C(=O)[C@]2(O[C@H](CCn3cc([C@H](O)c4ccccc4)nn3)[C@@H]([Si](C)(C)c3ccc(OC)cc3)[C@@H]2C)c2cc(N3CCC3=O)ccc21 returns the recorded outcome of this test.
inactive

GET /call?item= C=C(C)[C@@H]1CC=C(C(O)C2C=CC3C(=O)N(C)C(=O)C3N2Nc2ccccc2)CC1 (some centres undefined) returns the recorded outcome of this test.
inactive

GET /call?item= C=C(COC)/C(=C/C[C@@H](OC(C)=O)c1ccc(OCCO)cc1)c1cnc2ccccc2c1 returns the recorded outcome of this test.
inactive

GET /call?item= Oc1ccc2cc[n+](Cc3sc4ccccc4c3Cl)cc2c1 returns the recorded outcome of this test.
inactive

GET /call?item= CCOC(=O)C[C@H]1[C@H](OC(=O)c2ccc(C(=O)c3ccccc3)cc2)[C@@H](NC(=O)CC(C)C)c2cc(OCCCO)ccc2N1C(=O)c1ccc2ccccc2n1 returns the recorded outcome of this test.
inactive

GET /call?item= COC(=O)[C@@]1(Cc2ccccc2)N=C(c2ccc(OCCCO)cc2)O[C@H]1c1ccccc1 returns the recorded outcome of this test.
inactive

GET /call?item= CCC[C@@H]1C[C@@]1(CCC)[C@@H](NS(=O)(=O)c1cccc2cccnc12)c1ccc(Cl)cc1 returns the recorded outcome of this test.
inactive

GET /call?item= C=CCN1C(=O)[C@]2(O[C@H](CCn3cc([C@H](O)c4ccccc4)nn3)[C@@H]([Si](C)(C)c3ccc(OC)cc3)[C@@H]2C)c2ccccc21 returns the recorded outcome of this test.
inactive

GET /call?item= COC(=O)C(CC#Cc1ccc2c(c1)[C@]1(C(=O)N2)[C@H](C(=O)Nc2nc3ccccc3s2)[C@H]2C(=O)O[C@H](c3ccccc3)[C@H](c3ccccc3)N2[C@@H]1c1ccccc1OCCO)C(=O)OC returns the recorded outcome of this test.
inactive

###

System: PRMT1 (protein arginine N-methyltransferase 1)
testName: PRMT1 binders on small-molecule microarrays, primary screen, biochemical, small-molecule microarray, 635 nm fluorescence (AID 1088);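 further: binding of Prmt1 protein to compounds spotted on small-molecule microarray slides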
studyConditions: small-molecule microarray binding, higher = more signal
Hi there, I'd appreciate the recorded composite z-score for every entry that follows.
Form field (numeric): enter value without unit.

Bench note: what composite z-score did [N-]=[N+]=Nc1ccccc1[C@H]1OC(c2ccc(OCCCO)cc2)=N[C@@]1(CCS(=O)(=O)c1ccccc1)C(=O)NCC(O)CO (some centres not stated) show?
0.976

Bench note: what composite z-score did COC(=O)C(CC#Cc1ccc2c(c1)[C@]1(C(=O)N2)[C@H](c2ccc(OCCO)cc2)N2[C@H](c3ccccc3)[C@H](c3ccccc3)OC(=O)[C@H]2[C@@H]1C(=O)N1CCc2cc(OC)c(OC)cc2C1)C(=O)OC show?
1.57

Bench note: what composite z-score did CCCCCN1CC=CC23O[C@@H]4C=CCCOC(=O)C4[C@H]2C(=O)N(CCCCCO)[C@@H]3C1=O (some centres not stated) show?
-0.192

Bench note: what composite z-score did CCCC[C@@H]1C[C@H]1[C@@H](NC(=O)c1ccccc1)c1ccc(C(=O)OC)cc1 show?
-0.406

Bench note: what composite z-score did CC(C)OC(=O)C=C1C[C@@H](c2ccccn2)O[C@@H](c2ccccn2)O1 show?
0.875

Bench note: what composite z-score did CN1C(=O)C2C=CC(C(O)c3ccco3)N(Nc3ccccc3)C2C1=O (configuration not stated) show?
0.941

Bench note: what composite z-score did COCCOC(=O)N1C(=O)[C@@]2(c3cc(C#CC4(O)CCCCCC4)ccc31)[C@H](c1ccccc1OCCO)N1[C@H](c3ccccc3)[C@H](c3ccccc3)OC(=O)[C@H]1[C@@H]2C(=O)N1CCN(c2ncccn2)CC1 show?
1.55

###

testName: P. aeruginosa biofilm formation inhibitors, primary screen, strain PAO1, LB-PBS medium, absorbance 600 nm (AID 1176); further: test concentration not given here
studyConditions: P. aeruginosa PAO1 growth/biofilm, A600, 12 h; higher = more signal
measuredEndpoint: z-score
Form field (numeric): enter value without unit.

Bench note: what z-score did COc1cc(Br)cc(C(O)C2C=CC3C(=O)N(C)C(=O)C3N2N2CCCCC2)c1OC (centres undefined) show?
0.406

Bench note: what z-score did COCCCNC(=O)[C@@H]1c2ccccc2C(=O)N(Cc2ccccc2Cl)[C@H]1c1ccc(CO)cc1 show?
0.692

Bench note: what z-score did COC(=O)[C@@]1(Cc2ccc(F)cc2)[C@H]2c3cc(C(=O)N(C)C)n(Cc4cc(F)c(F)c(F)c4)c3C[C@H]2CN1C(=O)c1ccccc1 show?
0.15

Bench note: what z-score did O=C1c2ccccc2[C@](Cc2ccccc2I)(C(=O)NCCN2CCOCC2)[C@H](c2ccc(CO)cc2)N1C1CCCCC1 show?
0.531

###

testName: HepG2 cell viability effects, profiling panel, calcein-AM fluorescence, 48 h, basal (AID 1164); further: test concentration not given here
studyConditions: higher = more signal
measuredEndpoint: z-score

Bench note: what z-score did C=CCNC(=O)[C@@H]1[C@H]2C(=O)O[C@H](c3ccccc3)[C@H](c3ccccc3)N2[C@H](c2ccccc2OCCO)[C@@]12C(=O)N(C(=O)OCCOC)c1ccccc12 show?
-1.69

Bench note: what z-score did C=CCOC(=O)[C@H]1[C@@H]2C(=O)O[C@@H](c3ccccc3)[C@@H](c3ccccc3)N2[C@@H](c2ccc(OCCOC(=O)[C@H]3C[C@H]4C(=O)N[C@@H](CCCCNC(C)=O)C(=O)N4[C@H]3c3ccc(O)cc3)cc2)[C@]12C(=O)Nc1ccc(I)cc12 show?
-0.251

Bench note: what z-score did CCCC=C(CCC)[C@@H](NC(=O)c1cccs1)c1ccc(C(F)(F)F)cc1 show?
-0.809

###

testName: binders of probe aHhip on microarray, primary screen, stem cell growth factor project, biochemical, small-molecule microarray, fluorescence 635/667 (AID 1087);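 further: score merges spot fluorescence at 667nm with spot signal to noise ratio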
studyConditions: higher = more signal
Hi there, I'd appreciate the recorded composite z-score for every entry that follows.

Bench note: what composite z-score did CC(C)C[C@@H]1NC(=O)[C@@H]2C[C@H](C(=O)O)[C@H](c3cccc(OCCO)c3)N2C1=O show?
-0.264

Bench note: what composite z-score did COCCOC(=O)N1C(=O)[C@@]2(c3cc(C#CCCO)ccc31)[C@H](C(N)=O)[C@H]1C(=O)O[C@H](c3ccccc3)[C@H](c3ccccc3)N1[C@@H]2c1ccc(O)cc1 show?
-0.202

Bench note: what composite z-score did CN(C)C(=O)[C@]1(Cc2ccccc2N=[N+]=[N-])N=C(c2ccc(OCCCO)cc2)O[C@@H]1c1ccccc1N=[N+]=[N-] show?
0.0373

Bench note: what composite z-score did CCC[C@@H]1C[C@@]1(CCC)[C@@H](NC(=O)c1ccccc1)c1cccc(Cl)c1 show?
0.53

Bench note: what composite z-score did CCCCCN1CC=CC23O[C@@H]4/C=C\CCC(C)OC(=O)C4[C@H]2C(=O)N(C(C)CO)[C@@H]3C1=O (some centres not stated) show?
-0.268

Bench note: what composite z-score did CCOC(=O)C[C@H]1[C@H](OC(=O)c2ccc(C(=O)c3ccccc3)cc2)[C@@H](NC(=O)c2ccc3ccccc3n2)c2cc(OCCCO)ccc2N1C(=O)c1ccccc1 show?
-0.243

Bench note: what composite z-score did O=C(c1ccccc1)N1Cc2ccccc2C[C@@]2(COC(c3ccc(OCCCO)cc3)=N2)C1=O show?
-0.0296

Attribution: PubChem BioAssay
